- testedOn: T1, human IL-36R extracellular domain expressed with a C-terminal mouse IgG2a Fc tag (hIL-36R-mFc) (human; mouse, UniProt Q9HB29 20-337)
- T1 construct: not shown: mouse IgG2a Fc, E98-K330
- T1 sequence (looked up): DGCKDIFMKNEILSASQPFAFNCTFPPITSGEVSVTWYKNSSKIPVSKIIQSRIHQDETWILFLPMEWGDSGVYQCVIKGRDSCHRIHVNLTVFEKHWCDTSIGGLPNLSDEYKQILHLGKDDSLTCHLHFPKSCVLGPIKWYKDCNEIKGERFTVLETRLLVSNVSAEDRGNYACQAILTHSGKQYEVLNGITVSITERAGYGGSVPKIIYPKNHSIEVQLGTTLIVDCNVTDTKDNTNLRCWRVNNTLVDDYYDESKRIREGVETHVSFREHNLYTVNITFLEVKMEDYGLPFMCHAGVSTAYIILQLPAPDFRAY
- assayRemarks: SPR Biacore 4000, mAb captured on anti-hFc, 37C
Please note: Fulfilled applies when koff is 0.0003 s⁻¹ or greater, and Not fulfilled applies otherwise.

>  <binder>
H4H14706P2 (antibody, human IgG4 S228P, kappa, V domains shown, Fully human anti-IL-36R antibody) VH: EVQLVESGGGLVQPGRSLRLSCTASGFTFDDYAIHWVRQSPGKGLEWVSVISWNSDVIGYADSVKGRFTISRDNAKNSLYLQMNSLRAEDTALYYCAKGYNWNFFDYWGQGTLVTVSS VL: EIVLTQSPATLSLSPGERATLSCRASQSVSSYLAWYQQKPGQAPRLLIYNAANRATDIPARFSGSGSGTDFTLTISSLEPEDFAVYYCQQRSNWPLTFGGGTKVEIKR

>  <group>
Not fulfilled

$$$$
>  <binder>
H4H14708P2 (antibody, human IgG4 S228P, kappa, V domains shown, Fully human anti-IL-36R antibody) VH: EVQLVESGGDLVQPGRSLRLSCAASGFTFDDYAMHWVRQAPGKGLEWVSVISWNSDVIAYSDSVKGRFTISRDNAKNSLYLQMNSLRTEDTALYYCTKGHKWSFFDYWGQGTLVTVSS VL: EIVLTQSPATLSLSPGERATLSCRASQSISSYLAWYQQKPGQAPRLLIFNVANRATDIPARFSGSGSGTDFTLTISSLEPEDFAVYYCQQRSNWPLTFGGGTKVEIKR

>  <group>
Not fulfilled

$$$$
>  <binder>
H4H14758P (antibody, human IgG4 S228P, kappa, V domains shown, Fully human anti-IL-36R antibody) VH: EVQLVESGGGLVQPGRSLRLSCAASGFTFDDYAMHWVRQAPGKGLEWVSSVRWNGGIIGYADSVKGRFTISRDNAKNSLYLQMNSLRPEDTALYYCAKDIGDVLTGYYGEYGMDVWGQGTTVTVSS VL: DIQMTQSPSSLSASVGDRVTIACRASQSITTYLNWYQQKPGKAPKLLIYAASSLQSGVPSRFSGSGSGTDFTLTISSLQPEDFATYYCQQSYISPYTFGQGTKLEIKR

>  <group>
Not fulfilled

$$$$
>  <binder>
H4H14757P (antibody, human IgG4 S228P, kappa, V domains shown, Fully human anti-IL-36R antibody) VH: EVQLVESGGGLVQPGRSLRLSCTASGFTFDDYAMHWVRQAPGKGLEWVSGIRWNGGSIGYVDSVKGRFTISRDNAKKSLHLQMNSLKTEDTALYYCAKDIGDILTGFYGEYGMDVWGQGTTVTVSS VL: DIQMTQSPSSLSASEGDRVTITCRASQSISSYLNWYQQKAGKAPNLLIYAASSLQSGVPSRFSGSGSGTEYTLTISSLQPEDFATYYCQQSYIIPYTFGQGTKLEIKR

>  <group>
Not fulfilled

$$$$
>  <binder>
H4H14728P (antibody, human IgG4 S228P, kappa, V domains shown, Fully human anti-IL-36R antibody) VH: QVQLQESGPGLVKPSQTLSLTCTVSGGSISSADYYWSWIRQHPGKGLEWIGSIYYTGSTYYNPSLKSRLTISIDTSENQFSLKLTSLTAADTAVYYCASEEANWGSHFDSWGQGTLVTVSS VL: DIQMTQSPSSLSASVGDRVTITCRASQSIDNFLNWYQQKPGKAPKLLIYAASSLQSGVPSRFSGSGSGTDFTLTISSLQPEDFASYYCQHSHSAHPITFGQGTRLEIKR

>  <group>
Fulfilled

$$$$
